molecular target: Glycogen synthase kinase-3 alpha (Homo sapiens) (UniProt P49840); assay: concentration-response blocking of human GSK3A – biochemical, luminescence, cell-free homogeneous, retest, dose response (AID 463203); conditions: GSK-3 alpha enzyme, ADP-Glo luminescence, 60 min
Sequence (P49840 whole entry, looked up): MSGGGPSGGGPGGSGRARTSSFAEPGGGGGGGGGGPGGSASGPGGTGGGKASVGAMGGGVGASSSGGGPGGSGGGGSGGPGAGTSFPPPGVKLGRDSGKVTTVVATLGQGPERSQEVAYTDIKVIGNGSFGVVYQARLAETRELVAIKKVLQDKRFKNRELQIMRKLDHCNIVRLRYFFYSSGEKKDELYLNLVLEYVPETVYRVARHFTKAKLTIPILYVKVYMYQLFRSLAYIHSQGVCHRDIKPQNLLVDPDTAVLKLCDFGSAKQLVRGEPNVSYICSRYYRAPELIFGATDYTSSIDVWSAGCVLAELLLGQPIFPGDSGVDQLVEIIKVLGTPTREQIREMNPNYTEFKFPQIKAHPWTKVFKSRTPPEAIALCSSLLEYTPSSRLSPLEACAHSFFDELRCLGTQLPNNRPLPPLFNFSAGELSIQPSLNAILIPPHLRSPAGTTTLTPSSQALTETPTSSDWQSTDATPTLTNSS
Activity calls are given as the source filed them.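 Rule for the calls: active = more than half of replicate measurements showing over 20% loss of kinase signal relative to plate controls; inconclusive = some but at most half of replicates over 20% loss; inactive = no replicate over 20% signal loss.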
Possible outcomes: active, inactive

MOLECULE: CCCC1=C(C(=O)OCC)C(c2ccc(N(C)C)cc2)n2ncnc2N1 (stereo unspecified)
ASSIGNED CATEGORY: inactive

MOLECULE: O=c1[nH]c(=S)n(Cc2ccc(F)cc2)c(O)c1C=NCCCn1ccnc1
ASSIGNED CATEGORY: inactive

MOLECULE: O=C(Nc1c(C(=O)C2CC2)oc2ccccc12)c1ccc(Cl)cc1
ASSIGNED CATEGORY: inactive

MOLECULE: O=C(CSc1cccc2cccnc12)N/N=C/c1ccc(O)cc1
ASSIGNED CATEGORY: inactive

MOLECULE: Nc1c(C(=O)O)cnc2c(-c3ccc(Cl)cc3)cnn12
ASSIGNED CATEGORY: active

MOLECULE: CC1(C)CC(=O)c2cnc(NCC3CCCO3)nc2C1 (stereo unspecified)
ASSIGNED CATEGORY: inactive

====

molecular target: Glycogen synthase kinase-3 alpha (Homo sapiens) (UniProt P49840); assay: concentration-response blocking of human GSK3A – biochemical, luminescence, cell-free homogeneous, retest, dose response (AID 463203); conditions: GSK-3 alpha enzyme, ADP-Glo luminescence, 60 min
Calls of active or inactive are those of the source.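 Rule for the calls: active = more than half of replicate measurements showing over 20% loss of kinase signal relative to plate controls; inconclusive = some but at most half of replicates over 20% loss; inactive = no replicate over 20% signal loss.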
Classes used: active, inactive

COMPOUND: O=C1c2ccccc2C(=O)c2c(Nc3ccc(CCO)cc3)ccc(O)c21
ASSIGNED CATEGORY: inactive
//
COMPOUND: CCN(C(=O)CN1CCCCC1)c1c(N)n(Cc2ccccc2)c(=O)[nH]c1=O
ASSIGNED CATEGORY: inactive
//
COMPOUND: O=C(CSc1nnc(SCc2ccc(Cl)cc2)s1)N/N=C/c1ccccc1C(=O)O
ASSIGNED CATEGORY: inactive
//
COMPOUND: CCCNc1nc(Cl)nc(Nc2ccc(Cl)cc2)n1
ASSIGNED CATEGORY: inactive
//
COMPOUND: CN(Cc1c(C(=O)N/N=C/c2ccc(F)cc2)nnn1-c1nonc1N)C1CCCCC1
ASSIGNED CATEGORY: inactive
//
COMPOUND: O=C1NC(=Nc2ccccc2)S/C1=C/c1cccs1
ASSIGNED CATEGORY: inactive
//
COMPOUND: Cc1cc(OCc2cc(C(=O)O)oc2C)c2c3c(c(=O)oc2c1)CCCC3
ASSIGNED CATEGORY: active
//
COMPOUND: FC(F)(F)c1cnc(N/N=C/c2ccncc2)c(Cl)c1
ASSIGNED CATEGORY: inactive
//
COMPOUND: O=C(COc1ccccc1F)NC12CC3CC(CC(C3)C1)C2
ASSIGNED CATEGORY: inactive
//
COMPOUND: CCN1CCN(Cc2cc(OC)c(OC)cc2[N+](=O)[O-])CC1
ASSIGNED CATEGORY: inactive
//
COMPOUND: COC(=O)c1ccc(CSc2nnc(-c3ccncc3)n2Cc2ccccc2)o1
ASSIGNED CATEGORY: inactive
//
COMPOUND: CCOC(=O)c1oc2ccc3c(c2c1C)C(=O)CC1(CCN(C(=O)OCC)CC1)O3
ASSIGNED CATEGORY: inactive
//
COMPOUND: CC1=C(C(=O)OC2CCCCC2)C(c2cccs2)n2c(nc3ccccc32)N1 (stereo unspecified)
ASSIGNED CATEGORY: inactive
//
COMPOUND: COc1ccccc1-n1c(O)c(C=NCc2ccc3c(c2)OCO3)c(=O)[nH]c1=O
ASSIGNED CATEGORY: active
//
COMPOUND: Cc1ccsc1C(=O)OCC(=O)N1C(C)CCCC1C (stereo unspecified)
ASSIGNED CATEGORY: inactive
//
COMPOUND: Oc1ccc(-c2csc(Nc3cccnc3)n2)cc1
ASSIGNED CATEGORY: active
//
COMPOUND: CCOC(=O)c1nc(NCc2cccc(OC)c2)c2ccccc2n1
ASSIGNED CATEGORY: inactive
//
COMPOUND: CC1CCN(Cc2c(O)ccc3c2O/C(=C\c2ccco2)C3=O)CC1
ASSIGNED CATEGORY: active
//
COMPOUND: COc1ccc(CNc2ccc3cn[nH]c3c2)c(OC)c1OC
ASSIGNED CATEGORY: active
//
COMPOUND: Cc1ccc(S(=O)(=O)N2CCN(C(=O)n3ccnc3)CC2)cc1
ASSIGNED CATEGORY: inactive
//
COMPOUND: COc1ccc(SCCN2CC[C@@H](C(C)(C)C)CCC2=O)cc1
ASSIGNED CATEGORY: active
//
COMPOUND: Cc1ccc(/C=N/NC(=O)c2nnn(-c3nonc3N)c2-c2cccs2)cc1
ASSIGNED CATEGORY: active
//
COMPOUND: COc1ccc(CC(=O)N2CCOCC2)cc1OC
ASSIGNED CATEGORY: inactive
//
COMPOUND: COc1ccc(-c2ncncc2-c2ccc(OC)c(OC)c2)c(O)c1
ASSIGNED CATEGORY: active
//
COMPOUND: CCOC(=O)c1c(NC(=O)CSc2nnc(CNc3ccc(C)cc3C)o2)sc(C)c1C
ASSIGNED CATEGORY: inactive
//
COMPOUND: CCC(Sc1ccc2nnc(-c3ccc(OC)c(OC)c3)n2n1)C(=O)O (stereo unspecified)
ASSIGNED CATEGORY: active
//
COMPOUND: O=C(CSCCO)Nc1ccc([N+](=O)[O-])cc1
ASSIGNED CATEGORY: inactive
//
COMPOUND: Cc1cc(C(=O)N/N=C/c2cc(N=Nc3ccccc3)ccc2O)n[nH]1
ASSIGNED CATEGORY: inactive
//
COMPOUND: CCc1cc(C(=O)OC)c(NC(=O)CN2CCN(C(=O)c3ccco3)CC2)s1
ASSIGNED CATEGORY: inactive
//
COMPOUND: CCNc1cc(N2CCCC2)ccc1[N+](=O)[O-]
ASSIGNED CATEGORY: inactive
//
COMPOUND: O=C(O)CCSc1nnc(-c2ccncc2)n1-c1ccccc1
ASSIGNED CATEGORY: inactive
//
COMPOUND: CCOc1cccc(-c2c(C(=O)N/N=C/c3ccoc3)nnn2-c2nonc2N)c1
ASSIGNED CATEGORY: active
//
COMPOUND: COc1ccc(-n2c(O)c(C=NCc3ccc4c(c3)OCO4)c(=O)[nH]c2=O)cc1
ASSIGNED CATEGORY: inactive
//
COMPOUND: Fc1ccc(/C=N/Nc2cc(N3CCOCC3)ncn2)cc1
ASSIGNED CATEGORY: inactive
//
COMPOUND: Cc1oc2ccc(O)c(CN(C)C)c2c1C(=O)c1ccccc1
ASSIGNED CATEGORY: inactive
//
COMPOUND: Oc1cc(O)cc(-c2cc3ccc(O)cc3o2)c1
ASSIGNED CATEGORY: inactive
//
COMPOUND: CC(=O)C1C(c2ccc(C)cc2)c2c(n[nH]c2C)CC1(C)O (stereo unspecified)
ASSIGNED CATEGORY: inactive
//
COMPOUND: CC(=S)/C=C1\Sc2ccccc2N1C
ASSIGNED CATEGORY: inactive
//
COMPOUND: CC1CCN(Cc2c(C(=O)N/N=C/c3ccc(C(F)(F)F)cc3)nnn2-c2nonc2N)CC1
ASSIGNED CATEGORY: inactive
//
COMPOUND: Cc1cnc(NC(=O)C2CC(=O)N(c3cccc(Cl)c3)C2)s1 (stereo unspecified)
ASSIGNED CATEGORY: active
//
COMPOUND: Nc1nc2n(n1)C(c1ccc(Cl)cc1)CC(c1ccc(F)cc1)N2 (stereo unspecified)
ASSIGNED CATEGORY: inactive
//
COMPOUND: CC(Oc1ccc(Br)cc1)C(=O)N1CCC(C(N)=O)CC1 (stereo unspecified)
ASSIGNED CATEGORY: inactive
//
COMPOUND: CCCOC(=O)c1[nH]c2c(c1C)C(=O)CC(c1cc(OC)c(OC)c(OC)c1)C2 (stereo unspecified)
ASSIGNED CATEGORY: inactive
//
COMPOUND: O=C(NCCCCCCNC(=O)OCCO)OCCO
ASSIGNED CATEGORY: inactive
//
COMPOUND: CCOC(=O)Cc1c[nH]c2ccccc12
ASSIGNED CATEGORY: inactive
//
COMPOUND: COc1ccc(NC2CC(=O)NC2=O)cc1 (stereo unspecified)
ASSIGNED CATEGORY: inactive

====

molecular target: Glycogen synthase kinase-3 alpha (Homo sapiens) (UniProt P49840); test: concentration-response blocking of human GSK3A – biochemical, luminescence, cell-free homogeneous, retest, dose response (AID 463203); conditions: GSK-3 alpha enzyme, ADP-Glo luminescence, 60 min
Calls of active or inactive are those of the source.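 How the source made its calls: active means more than half of replicate measurements showing over 20% loss of kinase signal relative to plate controls; inconclusive means some but at most half of replicates over 20% loss; inactive means no replicate over 20% signal loss.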

COMPOUND: Cc1ccc(-n2cnc(N)c2C(=O)c2cccc([N+](=O)[O-])c2)cc1
TGT: Glycogen synthase kinase-3 alpha (Homo sapiens) (UniProt P49840)
AC50: 10.8 µM

COMPOUND: S=C(Nc1cccnc1)Nc1ccccn1
TGT: Glycogen synthase kinase-3 alpha (Homo sapiens) (UniProt P49840)
AC50: > 30 µM (inactive)

COMPOUND: CC(C)Nc1nc(NC(C)C)nc(C(=O)OCCO)n1
TGT: Glycogen synthase kinase-3 alpha (Homo sapiens) (UniProt P49840)
AC50: > 30 µM (inactive)

COMPOUND: CCCCc1[nH]c(=O)c(C#N)c2c1CCCC2
TGT: Glycogen synthase kinase-3 alpha (Homo sapiens) (UniProt P49840)
AC50: > 30 µM (inactive)

COMPOUND: Cc1cc(N2CCN(c3ccccc3)CC2)n2cc(-c3ccccc3)nc2n1
TGT: Glycogen synthase kinase-3 alpha (Homo sapiens) (UniProt P49840)
AC50: > 30 µM (inactive)

COMPOUND: Nc1nc(N)nc(-c2cc(F)ccc2O)n1
TGT: Glycogen synthase kinase-3 alpha (Homo sapiens) (UniProt P49840)
AC50: 18.9 µM

COMPOUND: c1ccc2[nH]c(-c3ccncc3)nc2c1
TGT: Glycogen synthase kinase-3 alpha (Homo sapiens) (UniProt P49840)
AC50: > 30 µM (inactive)

COMPOUND: O=C(CSc1ccccn1)Nc1ccccc1F
TGT: Glycogen synthase kinase-3 alpha (Homo sapiens) (UniProt P49840)
AC50: > 30 µM (inactive)

COMPOUND: NC(=O)c1nnn(-c2ccccc2)c1N
TGT: Glycogen synthase kinase-3 alpha (Homo sapiens) (UniProt P49840)
AC50: > 30 µM (inactive)

COMPOUND: COc1cccc(-c2c(C(=O)N/N=C/c3ccoc3)nnn2-c2nonc2N)c1
TGT: Glycogen synthase kinase-3 alpha (Homo sapiens) (UniProt P49840)
AC50: 7.92 µM

COMPOUND: CCCOc1ccc(-c2nnc(N)s2)cc1
TGT: Glycogen synthase kinase-3 alpha (Homo sapiens) (UniProt P49840)
AC50: > 30 µM (inactive)

COMPOUND: O=C(CSc1cccs1)Nc1ccc(Cl)cc1
TGT: Glycogen synthase kinase-3 alpha (Homo sapiens) (UniProt P49840)
AC50: > 30 µM (inactive)

COMPOUND: O=C(CSc1ccc2nnc(-c3ccccn3)n2n1)N1CCN(c2ccccc2)CC1
TGT: Glycogen synthase kinase-3 alpha (Homo sapiens) (UniProt P49840)
AC50: > 30 µM (inactive)

COMPOUND: CCOC(=O)C1=C(C)NC(C)=C(C(=O)OCC)C1c1sccc1C
TGT: Glycogen synthase kinase-3 alpha (Homo sapiens) (UniProt P49840)
AC50: > 30 µM (inactive)

COMPOUND: Oc1ccc(-c2nc3ncccn3c2Nc2ccc3c(c2)OCCO3)cc1
TGT: Glycogen synthase kinase-3 alpha (Homo sapiens) (UniProt P49840)
AC50: > 30 µM (inactive)

COMPOUND: COc1ccc(C(=O)Nc2nc(C)c(C)s2)cc1OC
TGT: Glycogen synthase kinase-3 alpha (Homo sapiens) (UniProt P49840)
AC50: > 30 µM (inactive)

COMPOUND: CCOC(=O)CSc1ncnc2c(C(=O)OCC)c3n(c12)CCC3
TGT: Glycogen synthase kinase-3 alpha (Homo sapiens) (UniProt P49840)
AC50: > 30 µM (inactive)

COMPOUND: CC1(C)Cc2c(sc3ncn(N)c(=N)c23)CO1
TGT: Glycogen synthase kinase-3 alpha (Homo sapiens) (UniProt P49840)
AC50: > 30 µM (inactive)

COMPOUND: Cc1cc(N2CCN(c3ccccc3)CC2)n2ncnc2n1
TGT: Glycogen synthase kinase-3 alpha (Homo sapiens) (UniProt P49840)
AC50: > 30 µM (inactive)

COMPOUND: CC(C)N=C(NC#N)SCc1ccc(Br)cc1
TGT: Glycogen synthase kinase-3 alpha (Homo sapiens) (UniProt P49840)
AC50: > 30 µM (inactive)

COMPOUND: CCc1c(C)c(C#N)c2nc3ccccc3n2c1NCC1CCCO1 (stereo not given)
TGT: Glycogen synthase kinase-3 alpha (Homo sapiens) (UniProt P49840)
AC50: 12.6 µM

COMPOUND: N#CCSc1nnc(-c2ccc3c(c2)OCO3)o1
TGT: Glycogen synthase kinase-3 alpha (Homo sapiens) (UniProt P49840)
AC50: 18.1 µM

COMPOUND: O=c1c(O)cccc2cc(O)c(O)c(O)c12
TGT: Glycogen synthase kinase-3 alpha (Homo sapiens) (UniProt P49840)
AC50: 21.1 µM

COMPOUND: COc1ccc(-c2nc(NC(=O)C3CC(=O)N(c4ccc5c(c4)OCCO5)C3)sc2C)cc1 (stereo not given)
TGT: Glycogen synthase kinase-3 alpha (Homo sapiens) (UniProt P49840)
AC50: > 30 µM (inactive)

COMPOUND: NS(=O)(=O)c1ccc(N=Nc2ccc(=O)[nH]c2O)cc1
TGT: Glycogen synthase kinase-3 alpha (Homo sapiens) (UniProt P49840)
AC50: 6.56 µM
